experimental system: Dual specificity protein phosphatase 3 (Homo sapiens) (UniProt P51452)
Sequence (P51452 whole entry, looked up): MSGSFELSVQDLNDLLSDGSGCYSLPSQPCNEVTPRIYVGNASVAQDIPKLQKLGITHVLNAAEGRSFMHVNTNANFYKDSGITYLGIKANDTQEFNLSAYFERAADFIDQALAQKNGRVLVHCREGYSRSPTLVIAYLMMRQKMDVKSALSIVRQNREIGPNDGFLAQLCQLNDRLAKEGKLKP
test details: DUSP3 enzyme activity inhibitors – biochemical, fluorescence, OMFP substrate, selectivity assay for LMPTP inhibitor project, SAR follow-up (AID 743310)
condition parameters: recombinant VHR, OMFP fluorogenic substrate, 50 min
The source made the active and inactive calls.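 Rule for the calls: active = IC50 at or below 20 µM; inactive = the rest.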
Write down the outcome that applies. Available outcomes: y for active, n for inactive

Check the results log: what was the call for `Cc1c(CCC(=O)O)c(=O)oc2c(C)c(OCc3ccccc3Cl)ccc12` ? y

Check the results log: what was the call for `c1ccc(-c2nc(NC3CC3)c3ccccc3n2)cc1` ? n

Check the results log: what was the call for `COc1ccccc1CNc1ncnc2ccsc12` ? n

Check the results log: what was the call for `CC(C)Nc1nc(-c2ccccc2)nc2ccccc12` ? n

Check the results log: what was the call for `c1ccc(-c2nc(N3CCCCCC3)c3ccccc3n2)cc1` ? n

Check the results log: what was the call for `Fc1ccc2nc(-c3ccccc3)cc(NCCCN3CCCCC3)c2c1` ? n

Check the results log: what was the call for `CC1CCN(c2nc(-c3ccccc3)nc3ccccc23)CC1` ? n

Check the results log: what was the call for `c1ccc(-c2nc(N3CCCC3)c3ccccc3n2)cc1` ? n

Check the results log: what was the call for `Cc1cccc(-c2nc(NCCCN3CCOCC3)c3ccccc3n2)c1` ? n

Check the results log: what was the call for `COc1ccc(-c2cc(NCCCN3CCCCC3)c3ccccc3n2)cc1` ? n

Check the results log: what was the call for `COc1cccc(-c2cc(NCCCN3CCCCC3)c3ccccc3n2)c1` ? n

Check the results log: what was the call for `CCc1nc(N)nc(N)c1-c1ccc(Cl)cc1` ? n

Check the results log: what was the call for `Cc1ccc(-c2nc(NCc3cccnc3)c3ccccc3n2)cc1` ? n

Check the results log: what was the call for `Nc1nc(N)c(Cc2ccc(Cl)cc2Cl)c(N)n1` ? n

Check the results log: what was the call for `CC(C)OCCCNc1nc(-c2ccccc2)nc2ccccc12` ? n

Check the results log: what was the call for `c1ccc(-c2nc(NCCCn3ccnc3)c3ccccc3n2)cc1` ? n

Check the results log: what was the call for `CC(C)CNc1nc(-c2ccccc2)nc2ccccc12` ? n

Check the results log: what was the call for `Fc1cccc(-c2cc(NCCCN3CCCCC3)c3ccccc3n2)c1` ? n

Check the results log: what was the call for `CCCCNc1nc(-c2ccccc2)nc2ccccc12` ? n

Check the results log: what was the call for `c1ccc(-c2nc(NCCN3CCOCC3)c3ccccc3n2)cc1` ? n

Check the results log: what was the call for `Cc1ccc(-c2nc(NCCN3CCOCC3)c3ccccc3n2)cc1` ? n

Check the results log: what was the call for `Brc1ccc2nc(-c3ccccc3)cc(NCCCN3CCCCC3)c2c1` ? n

Check the results log: what was the call for `c1ccc(-c2cc(NCCN3CCCCC3)c3ccccc3n2)cc1` ? n

Check the results log: what was the call for `c1ccc(-c2nc(N3CCOCC3)c3ccccc3n2)cc1` ? n

Check the results log: what was the call for `c1ccc(-c2cc(NCCN3CCCC3)c3ccccc3n2)cc1` ? n

Values were extracted from PubChem BioAssay AID743310.
